Values compiled from PubChem BioAssay.

assay_method_text: thallium flux activation in parental CHO cells, counter-screen for KCNQ1 potentiator project (AID 493006);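 on activation: fluorescence ratio of max minus min over baseline after K+ and Tl+ depolarization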
measurement_setup: parental CHO-K1 cells, FluxOR thallium flux, at 10 µM
Active and inactive are the calls of the source.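 How the source made its calls: active means duplicate-averaged activation above buffer control mean plus 5 SD of those controls; inactive means the rest.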
Can you answer with just one of these options? Y = active, N = inactive

{"molecule": "COc1ccccc1C(=O)Nc1ccnn1C1CCN(CCCC2CCCC2)CC1", "assigned_class": "N"}
{"molecule": "COc1cc2c(cc1NC(=O)CSc1nnc(COc3ccc(Cl)cc3)n1C)oc1ccccc12", "assigned_class": "N"}
{"molecule": "Cc1ccc(O)c(NC(=S)NC(=O)Cc2ccc(Cl)cc2)c1", "assigned_class": "N"}
{"molecule": "CC1CCc2sc3nc(N4CCN(CCO)CC4)n4ncnc4c3c2C1 (stereo unspecified)", "assigned_class": "Y"}
{"molecule": "Cc1cc(Cl)ccc1OCC(=O)N/N=C1\\CC2C=CCC12 (stereo unspecified)", "assigned_class": "N"}
{"molecule": "CCNC(=S)/N=C(\\N)Nc1nc(C)c2cc(C)ccc2n1", "assigned_class": "N"}
{"molecule": "COc1c(Br)cc(/C=N/n2c(-c3ccccc3)n[nH]c2=S)c(O)c1Br", "assigned_class": "N"}
{"molecule": "Cc1cc(C(=O)N2CCCC(N3CCN(c4cccc(Cl)c4)CC3)C2)n(C)n1 (stereo unspecified)", "assigned_class": "N"}

Query: Dear all, I need the recorded test outcome for "Oc1c(Br)cc(Br)cc1CNc1cccc2cccnc12" , thank you.
Reply: N

Query: Next molecule: CC(c1ccccc1)c1nnc(N)s1 (stereo unspecified)
Reply: N

Query: Next molecule: "COC(=O)c1ccccc1NC(=S)NC(=O)c1ccc(C)cc1"
Reply: N

* * *

assay_target: Short transient receptor potential channel 4 (Mus musculus)
assay_method_text: calcium flux activators in TRPC4/5HT1a cells, counter-screen for TRPC4 activator project, cell-based, second counter screen, HEK293 TRPC4/5HT1a, Fluo-4 (AID 434977)
measurement_setup: Fluo-4 calcium flux, at 10 µM
The source made the active and inactive calls.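 Rule for the calls: active = calcium signal rise above buffer-control mean plus 5 SD in both duplicates, and also a hit in the primary screen; inactive = the rest.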
Can you answer with just one of these options? active, inactive

Reference set, count: 5
{"compound": "COc1ccc(N/C(C)=C2/C(=O)C(=O)N(CCO)C2c2ccc(Br)cc2)cc1 (stereo unspecified)", "assay_target": "Short transient receptor potential channel 4 (Mus musculus)", "assigned_class": "active"}
{"compound": "CN(C)C1(CNC(=O)CC(NC(=O)c2ccccc2Cl)c2ccccc2)CCCCC1 (stereo unspecified)", "assay_target": "Short transient receptor potential channel 4 (Mus musculus)", "assigned_class": "inactive"}
{"compound": "CN(C)C(CNC(=O)Cc1cccc(C(F)(F)F)c1)c1ccco1 (stereo unspecified)", "assay_target": "Short transient receptor potential channel 4 (Mus musculus)", "assigned_class": "inactive"}
{"compound": "Cc1cc(OCCCn2ccnc2)cc(C)c1Cl", "assay_target": "Short transient receptor potential channel 4 (Mus musculus)", "assigned_class": "active"}
{"compound": "COc1cc(OC)cc(C(=O)N[C@H](C(=O)OCC(=O)NC(C)c2ccccc2)C(C)C)c1 (stereo partly specified)", "assay_target": "Short transient receptor potential channel 4 (Mus musculus)", "assigned_class": "active"}

Query: Dear all, I need the recorded test outcome for "CCOC(=O)C1(CCc2ccccc2)CCN(Cc2ccc(O)cc2)CC1" , thank you.
Reply: inactive

Query: Next compound: "O=C(O)c1ccc(-c2ccc(/C=c3/sc4nc5ccccc5n4c3=O)o2)cc1Cl"
Reply: active

Query: Next compound: NC(=O)C1CCCN(CC(O)COCc2ccc(Cl)cc2)C1 (stereo unspecified)
Reply: active

Query: Next compound: "O=C1/C(=C\c2cc(Cl)c(O)c(Cl)c2)SC(=S)N1Cc1ccccc1"
Reply: active

Query: Next compound: CN(C)C(CNc1ncnc2sc3c(c12)CCCC3)c1ccco1 (stereo unspecified)
Reply: inactive

Query: Next compound: "COc1cc(/C=C/C(=O)c2ccc3c(c2)OCO3)cc(Cl)c1O"
Reply: active

* * *

assay_target: Short transient receptor potential channel 4 (Mus musculus) (UniProt Q9QUQ5)
Sequence (Q9QUQ5 whole entry, looked up): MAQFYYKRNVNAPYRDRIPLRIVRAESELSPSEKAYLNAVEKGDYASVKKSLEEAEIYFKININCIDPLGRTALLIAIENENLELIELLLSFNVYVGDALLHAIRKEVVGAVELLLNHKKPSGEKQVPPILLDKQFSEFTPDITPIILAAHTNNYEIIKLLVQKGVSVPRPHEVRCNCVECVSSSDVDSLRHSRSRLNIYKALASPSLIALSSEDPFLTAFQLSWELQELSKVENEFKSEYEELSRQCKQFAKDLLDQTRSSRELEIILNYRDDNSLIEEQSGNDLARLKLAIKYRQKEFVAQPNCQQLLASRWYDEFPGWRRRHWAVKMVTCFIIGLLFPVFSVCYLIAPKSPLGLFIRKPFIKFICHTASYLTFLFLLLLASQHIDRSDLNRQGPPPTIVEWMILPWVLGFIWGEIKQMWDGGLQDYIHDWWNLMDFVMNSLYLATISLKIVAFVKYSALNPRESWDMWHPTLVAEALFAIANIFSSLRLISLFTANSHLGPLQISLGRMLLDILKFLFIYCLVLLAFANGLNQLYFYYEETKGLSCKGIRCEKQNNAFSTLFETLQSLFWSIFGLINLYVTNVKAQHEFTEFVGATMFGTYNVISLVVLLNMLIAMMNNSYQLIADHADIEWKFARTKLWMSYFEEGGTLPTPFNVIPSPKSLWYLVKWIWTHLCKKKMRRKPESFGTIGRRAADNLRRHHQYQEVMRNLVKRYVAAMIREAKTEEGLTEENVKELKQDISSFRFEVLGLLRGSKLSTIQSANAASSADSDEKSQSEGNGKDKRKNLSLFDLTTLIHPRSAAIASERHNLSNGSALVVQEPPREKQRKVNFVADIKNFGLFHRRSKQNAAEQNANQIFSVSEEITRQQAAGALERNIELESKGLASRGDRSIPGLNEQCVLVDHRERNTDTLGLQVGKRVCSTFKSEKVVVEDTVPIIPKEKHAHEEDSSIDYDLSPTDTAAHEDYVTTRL
assay_method_text: inhibitors of mouse TRPC4 channel, confirmation, cell-based, Fluo4, HEK293 TRPC4beta/mu-opioid (AID 2636)
measurement_setup: DAMGO, Fluo4 calcium flux, at 10 µM
Active and inactive are the calls of the source.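 The calls were made as follows: active = calcium signal cut by more than 3 SD below the full-agonist control yet still positive, in both repeats and the earlier primary screen; inactive = the rest.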
Can you answer with just one of these options? TRUE (active), FALSE (inactive)

Query: Dear all, I need the recorded test outcome for "CCOc1ccccc1OCC(=O)Nc1cc(S(=O)(=O)N2CCCCC2)ccc1N1CCN(CC)CC1" , thank you.
Reply: FALSE

Query: Next compound: "O=C(NC(=S)NNC(=O)[C@H]1C[C@@H]1c1ccccc1)c1cccc(F)c1"
Reply: FALSE

Query: Next compound: "C/C=C(\C)CN1CCC(n2nccc2NC(=O)CCc2ccccc2)CC1"
Reply: TRUE

Query: Next compound: CN(C)C(CNC(=O)C1CCN(S(=O)(=O)c2cccc(C(F)(F)F)c2)CC1)c1ccccc1 (stereo not given)
Reply: FALSE

Query: Next compound: CC(=O)Nc1ccc(CN2CCCC(C(=O)c3cccc(C(F)(F)F)c3)C2)cc1 (stereo not given)
Reply: FALSE

* * *

assay_method_text: thallium flux activation in parental CHO cells, counter-screen for KCNQ1 potentiator project (AID 493006);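 on activation: fluorescence ratio of max minus min over baseline after K+ and Tl+ depolarization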
measurement_setup: parental CHO-K1 cells, FluxOR thallium flux, at 10 µM
Activity calls are given as the source filed them.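 How the source made its calls: active means duplicate-averaged activation above buffer control mean plus 5 SD of those controls; inactive means the rest.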
Can you answer with just one of these options? active, inactive

Reference set, count: 5
{"molecule": "CCOC(=O)CNC(=O)N1CCc2ccc(NC(=O)c3ccccc3Cl)cc2C1", "assigned_class": "inactive"}
{"molecule": "C#CC1(NC(=O)NCCCC)CCCCC1", "assigned_class": "inactive"}
{"molecule": "O=C(NC(=S)Nc1nc2ccc(F)cc2s1)c1ccco1", "assigned_class": "active"}
{"molecule": "Cc1nn(CCc2nn[nH]n2)c2nc(-c3ccc(C4CCCCC4)cc3)cc(C(F)(F)F)c12", "assigned_class": "active"}
{"molecule": "Cc1ccc(Nc2c([N+](=O)[O-])ccc3nonc23)c(C)c1", "assigned_class": "inactive"}

Query: Dear all, I need the recorded test outcome for "CN(c1ccccc1)S(=O)(=O)c1ccc(NC(=O)c2nc(S(C)(=O)=O)ncc2Cl)cc1" , thank you.
Reply: inactive

Query: Next molecule: "COc1cc(OC)cc(C(=O)NC(=S)N2CCCCCC2)c1"
Reply: inactive

Query: Next molecule: "CC(=O)N1N=C(N)SC12CCCC2"
Reply: inactive

Query: Next molecule: "N=C1S/C(=C\c2ccco2)C(=O)N1c1nccs1"
Reply: active

Query: Next molecule: "Fc1ccc(/C=N/n2c(C3CCCCC3)n[nH]c2=S)cc1"
Reply: inactive

Query: Next molecule: COCCCNC(=O)CC(NS(=O)(=O)c1ccc(F)cc1)c1ccc(OC)cc1 (stereo unspecified)
Reply: inactive

Query: Next molecule: "COc1ccc(NC(=O)C(=O)NNC(=O)c2ccc(Cl)cc2Cl)cc1"
Reply: active

Query: Next molecule: "S=c1[nH]c2cc(-c3ccccc3)ccc2o1"
Reply: active

Query: Next molecule: "C=CCn1c(=S)[nH]c2sc3c(c2c1=O)CCCC3"
Reply: active

Query: Next molecule: CNC(=O)CC1C(=O)N(c2ccc(Cl)cc2)C(=S)N1CCc1ccc(OC)c(OC)c1 (stereo unspecified)
Reply: inactive

Query: Next molecule: Cc1ccccc1C(OCCN(C)C)C1CCCCC1 (stereo unspecified)
Reply: inactive

Query: Next molecule: O=S(=O)(CC(CN1CCCC1)N1CCCC1)c1ccc2ccccc2c1 (stereo unspecified)
Reply: inactive

Query: Next molecule: "CCCCCn1c(=S)[nH]c2ncccc2c1=O"
Reply: active

Query: Next molecule: "O=C(NC(=S)Nc1ccc(Cl)cn1)c1cccs1"
Reply: inactive

Query: Next molecule: "OCCN1CCN(CCCN2c3ccccc3Sc3ccc(Cl)cc32)CC1"
Reply: inactive

Query: Next molecule: "Fc1ccccc1/C=N/NC(=S)Nc1ccc(Cl)cc1Cl"
Reply: inactive

Query: Next molecule: "COc1cccc(OC)c1C(=O)Nc1ccc(C(=O)NCc2ccccc2)cc1"
Reply: inactive

Query: Next molecule: "O=C(CN(c1ccc(Cl)cc1)S(=O)(=O)c1ccc(Cl)c([N+](=O)[O-])c1)NCCc1ccc(F)cc1"
Reply: inactive

Query: Next molecule: "CCC(CC)C(=O)Nc1cc([N+](=O)[O-])ccc1Cl"
Reply: inactive

Query: Next molecule: "Cc1cc(C)n(CCNS(=O)(=O)c2ccccc2)n1"
Reply: inactive

Query: Next molecule: "O=C(NC(=S)Nc1nc2ccccc2s1)c1cccs1"
Reply: active

* * *

assay_target: Short transient receptor potential channel 4 (Mus musculus) (UniProt Q9QUQ5)
assay_method_text: inhibitors of mouse TRPC4 channel, confirmation, cell-based, Fluo4, HEK293 TRPC4beta/mu-opioid (AID 2636)
measurement_setup: DAMGO, Fluo4 calcium flux, at 10 µM
The source made the active and inactive calls.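 Rule for the calls: active = calcium signal cut by more than 3 SD below the full-agonist control yet still positive, in both repeats and the earlier primary screen; inactive = the rest.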
Can you answer with just one of these options? active, inactive

{"compound": "CCCc1c(O)nc(SCCN(CCC)CCC)[nH]c1=O", "assigned_class": "inactive"}
{"compound": "O=c1c2ccccc2[nH]c(=S)n1Cc1cccnc1", "assigned_class": "active"}
{"compound": "CC(C)(C)c1ccccc1NC(=O)NC1CCN(Cc2c(F)cccc2Cl)CC1", "assigned_class": "inactive"}

Query: Dear all, I need the recorded test outcome for O=C(C1CCCN(Cc2ccccc2)C1)N1CCc2ccccc2C1 (centres undefined) , thank you.
Reply: inactive

Query: Next compound: "Cc1ccc(COn2c(-c3ccc(Cl)cc3Cl)nc3ncccc32)cc1"
Reply: inactive

Query: Next compound: "OCCN1CCN(Cc2cc(Br)cc(Br)c2O)CC1"
Reply: inactive

Query: Next compound: "O=C1/C(=C\c2cc(Cl)c(O)c(Cl)c2)SC(=S)N1Cc1ccccc1"
Reply: inactive

Query: Next compound: CC1CCCN(CCOCCOc2ccccc2-c2ccccc2)C1 (centres undefined)
Reply: active

Query: Next compound: "Clc1ccc(OCCNCCc2ccccc2)cc1"
Reply: inactive
